target: UniProtKB O15496; assay: sPLA2-X enzyme inhibition assay (thio-PC substrate, DTNB detection, absorbance 410 nm); format: biochemical; parameters: made in house; host or cells: E. coli; conditions: class symbols; read-out: sPLA2 Type X Inhibition (IC50; nM)
IC50 values for the compounds below.

Compound: NC(=O)c1cc2ccc(OC(F)(F)F)cc2n1-c1cccc(C2CC2C(=O)O)n1 (single isomer, unassigned) [Compound 28e]
IC50: < 20 nM
//
Compound: NC(=O)c1cc2ccc(OC(F)(F)F)cc2n1-c1cccc(CNC(=O)C(F)(F)F)n1 [Compound 37]
IC50: > 200 nM
//
Compound: CS(=O)(=O)OCC(F)(F)c1cccc(-n2c(C(N)=O)cc3ccc(OC(F)(F)F)cc32)c1 [Compound 47]
IC50: > 200 nM
//
Compound: NC(=O)c1cc2ccc(OC(F)(F)F)cc2n1-c1ccc2c(c1)C(CC(=O)O)CO2 (stereo not shown) [Compound 1]
IC50: 50 to 200 nM

---

Known IC50 of a selection of compounds
molecular target: sPLA2-X protein (Homo sapiens, UniProt O15496); test: sPLA2-X enzyme inhibition assay (thio-PC substrate, DTNB detection, absorbance 410 nm); format: biochemical; set-up: made in house; host or cells: E. coli; settings: class symbols; read-out: sPLA2 Type X Inhibition (IC50; nM)
Sequence (O15496 43-165): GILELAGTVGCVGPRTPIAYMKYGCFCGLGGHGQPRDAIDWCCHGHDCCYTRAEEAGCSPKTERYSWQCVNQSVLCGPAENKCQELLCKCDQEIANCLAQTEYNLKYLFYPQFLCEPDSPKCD
Experimental readout: IC50

Compound: CNC(=O)c1cc2ccc(OC(F)(F)F)cc2n1-c1cccc(CCC(=O)O)c1
Experimental readout: IC50
Test result: > 200 nM

Compound: CC(C)(Cc1cccc(-n2c(C(N)=O)cc3ccc(OC(F)(F)F)cc32)c1)C(=O)O
Experimental readout: IC50
Test result: < 20 nM

Compound: NC(=O)c1cc2ccc(OC(F)(F)F)cc2n1-c1cccc(SC2(C(=O)O)CCC2)c1
Experimental readout: IC50
Test result: < 20 nM

Compound: C[C@]1(c2cccc(-n3c(C(N)=O)cc4ccc(OC(F)(F)F)cc43)c2)C[C@H]1C(=O)O (relative stereo) [Compound 38a]
Experimental readout: IC50
Test result: < 20 nM

Compound: NC(=O)c1cc2ccc(OC(F)(F)F)cc2n1-c1cccc(S(=O)(=O)CC(=O)O)n1
Experimental readout: IC50
Test result: 20 to 50 nM

Compound: CC(C)(CC(=O)O)c1cccc(-n2c(C(N)=O)cc3ccc(OC(F)(F)F)cc32)c1
Experimental readout: IC50
Test result: < 20 nM

Compound: NC(=O)c1oc2ccc(OC(F)(F)F)cc2c1-c1cccc(CCC(=O)O)c1
Experimental readout: IC50
Test result: > 200 nM

Compound: NC(=O)c1sc2ccc(OC(F)(F)F)cc2c1-c1cccc(C2(CC(=O)O)CC2)c1
Experimental readout: IC50
Test result: < 20 nM

Compound: NC(=O)c1cc2ccc(OC(F)(F)F)cc2n1-c1ccc2oc(C(=O)O)cc2c1
Experimental readout: IC50
Test result: 50 to 200 nM

Compound: NC(=O)c1cc2ccc(OC(F)(F)F)cc2n1-c1cccc(C2CC2C(=O)O)n1 (single isomer, unassigned) [Compound 28d]
Experimental readout: IC50
Test result: 50 to 200 nM

Compound: NC(=O)c1cc2ccc(OC(F)(F)F)cc2n1-c1cccc(C2CC2C(=O)O)n1 (racemic) [Compound 28]
Experimental readout: IC50
Test result: < 20 nM

---

molecular target: sPLA2-X protein (Homo sapiens, UniProt O15496); experiment: sPLA2-X enzyme inhibition assay (thio-PC substrate, DTNB detection, absorbance 410 nm); type: biochemical; set-up: made in house; host or cells: E. coli; settings: class symbols; read-out: sPLA2 Type X Inhibition (IC50; nM)
Where a name gives a salt, the structure may show the parent alone.
Listed next: entries and their corresponding IC50.
Experimental readout: IC50

Molecule: NC(=O)c1cc2ccc(OC(F)(F)F)cc2n1-c1cccc(CC2(C(=O)O)CC2)c1
Experimental readout: IC50
Test result: > 200 nM

Molecule: NC(=O)c1cc2ccc(OC(F)(F)F)cc2n1-c1cccc(C2CC2C(=O)O)c1 (single isomer, unassigned) [Compound 15a]
Experimental readout: IC50
Test result: > 200 nM

Molecule: NC(=O)c1sc2ccc(OC(F)(F)F)cc2c1-c1cccc(C2CC2C(=O)O)n1 (stereo not shown) [Compound 56]
Experimental readout: IC50
Test result: < 20 nM

Molecule: NC(=O)c1cc2ccc(OC(F)(F)F)cc2n1-c1cccc(C[C@@H](N)C(=O)O)c1 [Compound 23, TFA salt]
Experimental readout: IC50
Test result: > 200 nM

Molecule: CC(C)(CC(=O)O)c1cccc(-n2c(C(N)=O)cc3ccc(OC(F)(F)F)cc32)n1
Experimental readout: IC50
Test result: 20 to 50 nM

Molecule: CC(C)(Cc1cccc(-n2c(C(N)=O)cc3ccc(OC(F)(F)F)cc32)n1)C(=O)O
Experimental readout: IC50
Test result: 50 to 200 nM

Molecule: NC(=O)c1cc2ccc(OC(F)(F)F)cc2n1-c1cccc(C2(CC(=O)O)CC2)n1
Experimental readout: IC50
Test result: < 20 nM

Molecule: NC(=O)c1cc2ccc(OC(F)(F)F)cc2n1-c1cccc(N2CC(F)(F)C2)n1
Experimental readout: IC50
Test result: 50 to 200 nM

Molecule: NC(=O)c1cc2ccc(OC(F)(F)F)cc2n1-c1cccc([C@H]2C[C@@H]2C(=O)O)n1 (relative stereo) [Compound 28a]
Experimental readout: IC50
Test result: < 20 nM

Molecule: NC(=O)c1nc2ccc(OC(F)(F)F)cc2n1-c1cccc(C2CC2C(=O)O)n1 (stereo not shown)
Experimental readout: IC50
Test result: > 200 nM

Molecule: CC(C)(C)OC(=O)NC1(c2cccc(-n3c(C(N)=O)cc4ccc(OC(F)(F)F)cc43)n2)CCC1
Experimental readout: IC50
Test result: > 200 nM

Molecule: N[C@@H](CC(=O)O)c1cccc(-n2c(C(=O)O)cc3ccc(OC(F)(F)F)cc32)c1
Experimental readout: IC50
Test result: > 200 nM

Molecule: NC(=O)c1cc2ccc(OC(F)(F)F)cc2n1-c1cccc(C2(N)CCC2)n1 [Compound 49, TFA salt]
Experimental readout: IC50
Test result: > 200 nM

Molecule: NC(=O)c1sc2ccc(OC(F)(F)F)cc2c1-c1cccc(C2CC2C(=O)O)n1 (racemic) [Compound 54]
Experimental readout: IC50
Test result: 50 to 200 nM

Molecule: CC(C)(C)OC(=O)N1CC(CC(=O)O)c2cc(-n3c(C(N)=O)cc4ccc(OC(F)(F)F)cc43)ccc21 (stereo not shown)
Experimental readout: IC50
Test result: 50 to 200 nM

Molecule: CC(C)(Sc1cccc(-n2c(C(N)=O)cc3ccc(OC(F)(F)F)cc32)c1)C(=O)O
Experimental readout: IC50
Test result: < 20 nM

Molecule: NC(=O)c1cc2ccc(OC(F)(F)F)cc2n1-c1cccc(C2CC2C(=O)O)c1 (single isomer, unassigned) [Compound 15b]
Experimental readout: IC50
Test result: 20 to 50 nM

Molecule: NC(=O)c1cc2ccc(OC(F)(F)F)cc2n1-c1cccc(C(F)(F)CO)c1
Experimental readout: IC50
Test result: 50 to 200 nM

Molecule: C/C(=C\C(=O)O)c1cccc(-n2c(C(N)=O)cc3ccc(OC(F)(F)F)cc32)n1
Experimental readout: IC50
Test result: > 200 nM

Molecule: NC(=O)c1sc2ccccc2c1-c1cccc(CCC(=O)O)c1
Experimental readout: IC50
Test result: > 200 nM

Molecule: NC(=O)c1sc2ccc(OC(F)(F)F)cc2c1-c1ccc2c(c1)C(CC(=O)O)CO2 (stereo not shown)
Experimental readout: IC50
Test result: > 200 nM

Molecule: NC(=O)c1cc2ccc(OC(F)(F)F)cc2n1-c1cccc(C2(NCC(=O)O)CCC2)n1
Experimental readout: IC50
Test result: 20 to 50 nM

Molecule: NC(=O)c1cc2ccc(OC(F)(F)F)cc2n1-c1cccc(N2CC[C@@H]2C(=O)O)n1
Experimental readout: IC50
Test result: < 20 nM

Molecule: NC(=O)c1sc2ccc(OC(F)(F)F)cc2c1-c1cccc(CCC(=O)O)c1
Experimental readout: IC50
Test result: 20 to 50 nM

Molecule: COC(=O)CC1(c2cccc(-c3c(C(N)=O)sc4ccc(OC(F)(F)F)cc34)c2)CC1
Experimental readout: IC50
Test result: > 200 nM

Molecule: O=C(O)c1cc2ccc(OC(F)(F)F)cc2n1-c1cccc(C2(C(=O)O)CC2)n1
Experimental readout: IC50
Test result: > 200 nM

Molecule: CS(=O)(=O)NCc1cccc(-n2c(C(N)=O)cc3ccc(OC(F)(F)F)cc32)n1
Experimental readout: IC50
Test result: > 200 nM

Molecule: NC(=O)c1cc2ccc(OC(F)(F)F)cc2n1-c1cccc([C@@H](N)CC(=O)O)c1
Experimental readout: IC50
Test result: > 200 nM

Molecule: NC(=O)c1cc2ccc(OC(F)(F)F)cc2n1-c1ccc2occ(C(=O)O)c2c1
Experimental readout: IC50
Test result: > 200 nM

Molecule: NC(=O)c1cc2ccc(OC(F)(F)F)cc2n1-c1cccc(CCC(=O)O)n1
Experimental readout: IC50
Test result: < 20 nM

Molecule: NCc1cccc(-n2c(C(N)=O)cc3ccc(OC(F)(F)F)cc32)n1 [Compound 27, TFA salt]
Experimental readout: IC50
Test result: > 200 nM
